test system: pooled TCR1, TCR2, TCR3, TCR5, TCR7, TCR24, TCR37 with one TCR left out; test: Multiplexed TCR/library dropout screen, individual ES of each leave-one-out pool; type: cell-based, mouse; conditions: leave-one-out pool without TCR1
Outcome measure: INDIVIDUAL ES LOO_TCR1

ALVREGLRNVAAGANP
-1.224e-5
AAVEEGIVAGGGVTLL
-4.978e-5
AKAAVEEGIVAGGGV
-3.982e-5
AGGVAVIKAGAATEV
2.749e-5
AEKVRNLPAGHGLNAQ
5.319e-5

---

tested on: Jurkat cells, No TCR; assay: Single SABR-II co-incubation, background without TCR; format: cell-based, human; conditions: No TCR; Fig 5C; technical replicate 2
Outcome measure: %GFP+CD69+ cells of SABR-NFAT-GFP-Jurkat cells (%)

LQTLALNAARDP
0.75
QLELGGSKDSDKGQ [14-mer hybrid insulin peptide spanning the fusion junction, TCR3 hit]
10.7
VEQLELGSGKEVKG [14-mer hybrid insulin peptide spanning the fusion junction, TCR3 hit]
4
VEQLELGAKQEEKE [14-mer hybrid insulin peptide spanning the fusion junction, TCR3 hit]
1.55
QVEQLELNAARDPN [14-mer hybrid insulin peptide spanning the fusion junction, TCR3 hit]
2.2
EQLELGGKADEFPD [14-mer hybrid insulin peptide spanning the fusion junction, TCR3 hit]
12.4
EQLELGGHIEDSGE [14-mer hybrid insulin peptide spanning the fusion junction, TCR3 hit]
13.9

The measured values listed here are drawn from paper PMC11093748.
